The reported numbers originate from paper PMC6261661.

Biological target: mMC3R (Mus musculus, UniProt P33033)
Sequence (P33033 whole entry): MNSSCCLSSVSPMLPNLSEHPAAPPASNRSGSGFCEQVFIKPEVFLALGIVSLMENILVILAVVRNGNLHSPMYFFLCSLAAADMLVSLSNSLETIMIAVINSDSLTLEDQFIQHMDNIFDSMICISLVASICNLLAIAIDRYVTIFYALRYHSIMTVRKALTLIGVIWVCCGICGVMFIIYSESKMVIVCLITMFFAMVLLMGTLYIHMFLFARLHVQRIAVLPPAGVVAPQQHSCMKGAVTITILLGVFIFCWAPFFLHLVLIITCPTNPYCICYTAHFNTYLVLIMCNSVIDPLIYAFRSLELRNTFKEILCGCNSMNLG
Test: cell-based
Assay type: cell-based
Square brackets hold non-standard residues; d marks the D form. Peptide text beside a SMILES is read from it. * marks the point of attachment. dBip = N[C@H](Cc1ccc(-c2ccccc2)cc1)C(=O)O; dPhe(4-I) = N[C@H](Cc1ccc(I)cc1)C(=O)O; 2Nal = N[C@@H](Cc1ccc2ccccc2c1)C(=O)O; d1Nal = N[C@H](Cc1cccc2ccccc12)C(=O)O; d2Nal = N[C@H](Cc1ccc2ccccc2c1)C(=O)O; 3Pal = N[C@@H](Cc1cccnc1)C(=O)O; Tic = O=C(O)[C@@H]1Cc2ccccc2CN1; Octanoyl = CCCCCCCC(=O)*
The entries below are paired with their reported EC50.

Would you please look over these solved cases?
MOLECULE	EC50
CC(=O)N[C@@H](Cc1c[nH]c2ccccc12)C(=O)N[C@H](Cc1ccccc1)C(=O)N[C@@H](CCCNC(=N)N)C(=O)N[C@H](Cc1ccc2ccccc2c1)C(N)=O [Peptide 26, Ac-Trp-DPhe-Arg-DNal(2’)-NH2] (Ac-W[dF]R[d2Nal]-NH2)	> 100 µM
CC(=O)N[C@@H](Cc1ccccc1)C(=O)N[C@H](Cc1cccc2ccccc12)C(=O)N[C@@H](CCCNC(=N)N)C(=O)N[C@@H](Cc1c[nH]c2ccccc12)C(N)=O [Peptide 21, Ac-Phe-DNal(1’)-Arg-Trp-NH2] (Ac-F[d1Nal]RW-NH2)	> 100 µM
CC(=O)N[C@@H](Cc1ccccc1)C(=O)N[C@H](Cc1ccc(-c2ccccc2)cc1)C(=O)N[C@@H](CCCNC(=N)N)C(=O)N[C@@H](Cc1c[nH]c2ccccc12)C(N)=O [Peptide 20, Ac-Phe-DBip-Arg-Trp-NH2] (Ac-F[dBip]RW-NH2)	> 100 µM

Give me measured EC50, please, for this molecule: CCCCCCCC(=O)N[C@H](Cc1c[nH]cn1)C(=O)N[C@H](Cc1ccccc1)C(=O)N[C@@H](CCCNC(=N)N)C(=O)N[C@@H](Cc1c[nH]c2ccccc12)C(N)=O [Peptide 9, Octanoyl-DHis-DPhe-Arg-Trp-NH2]
4.2 µM

Dear colleague, please send me the reported EC50 for CC(=O)N[C@@H](Cc1cccnc1)C(=O)N[C@H](Cc1ccccc1)C(=O)N[C@@H](CCCNC(=N)N)C(=O)N[C@@H](Cc1ccc2ccccc2c1)C(N)=O [Peptide 23, Ac-3PAL-DPhe-Arg-Nal(2’)-NH2] (Ac-[3Pal][dF]R[2Nal]-NH2) when you can.
> 100 µM

Return EC50 for the following molecule: CC(=O)N[C@@H](Cc1c[nH]c2ccccc12)C(=O)N[C@H](Cc1cccc2ccccc12)C(=O)N[C@@H](CCCNC(=N)N)C(=O)N[C@@H](Cc1c[nH]c2ccccc12)C(N)=O [Peptide 19, Ac-Trp-DNal(1’)-Arg-Trp-NH2] (Ac-W[d1Nal]RW-NH2)
> 100 µM

// Input: CC(=O)N[C@@H](Cc1c[nH]cn1)C(=O)N[C@H](Cc1ccc(I)cc1)C(=O)N[C@@H](CCCNC(=N)N)C(=O)N1Cc2ccccc2C[C@H]1C(N)=O [Peptide 31, Ac-His-(pI)DPhe-Arg-Tic-NH2] (Ac-H[dPhe(4-I)]R[Tic]-NH2) . Output its EC50 only.
2.9 µM

State, in one line, measured EC50 of CCCCCCCC(=O)N[C@@H](Cc1c[nH]cn1)C(=O)N[C@H](Cc1ccccc1)C(=O)N[C@@H](CCCNC(=N)N)C(=O)N[C@@H](Cc1ccccc1)C(N)=O [Peptide 5, Octanoyl-His-DPhe-Arg-Phe-NH2] (Octanoyl-H[dF]RF-NH2)
0.29 µM
